These measurements were taken from the RNAGym collection of RNA variant scans (doi:10.7554/elife.80360).

B1: Twister Ribozyme (parent)
chain: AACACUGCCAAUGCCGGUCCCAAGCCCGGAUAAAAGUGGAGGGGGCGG

- Variants of: B1
- Method: self-cleavage, relative activity (ratio to wild type); higher = more cleavage; co-transcriptional
Property: self-cleavage

Use the examples below as a reference point.
1. G17A C27U : 0.403
2. A10G G45C : 0.639
3. A10C A23C : 0.242

Provide self-cleavage for all items below, preserving their order.
1. A40C G47U
2. C9A C19G
3. A2C C20U
4. A11U G28C
5. A1C G48C
6. C21U G41C
7. C3G G24C

1. 0.228
2. 0.0837
3. 0.0643
4. 0.801
5. 0.168
6. 0.434
7. 0.0852

Take each entry in turn and give its self-cleavage.
1. U6A C46U
2. G17U C21U
3. C8A G28C
4. C20A A32C
5. A1U C14U
6. A10C G36C

1.04
0.0901
0.159
0.111
0.08
0.688

Items follow; give self-cleavage for each.
1. C27G G29C
2. C19U A32C
3. G39C G47U
4. C8U C15G
5. C8A A11G
6. G13C C26U

1: 0.0656; 2: 1.05; 3: 0.163; 4: 0.0382; 5: 0.588; 6: 0.0884
